All figures here come from patent EP4389746A2.

I'd appreciate it if you could supply IC50 values for the items below.
Biological target: human P2X3 receptor (Homo sapiens, UniProt P56373)
Sequence (P56373 1-397): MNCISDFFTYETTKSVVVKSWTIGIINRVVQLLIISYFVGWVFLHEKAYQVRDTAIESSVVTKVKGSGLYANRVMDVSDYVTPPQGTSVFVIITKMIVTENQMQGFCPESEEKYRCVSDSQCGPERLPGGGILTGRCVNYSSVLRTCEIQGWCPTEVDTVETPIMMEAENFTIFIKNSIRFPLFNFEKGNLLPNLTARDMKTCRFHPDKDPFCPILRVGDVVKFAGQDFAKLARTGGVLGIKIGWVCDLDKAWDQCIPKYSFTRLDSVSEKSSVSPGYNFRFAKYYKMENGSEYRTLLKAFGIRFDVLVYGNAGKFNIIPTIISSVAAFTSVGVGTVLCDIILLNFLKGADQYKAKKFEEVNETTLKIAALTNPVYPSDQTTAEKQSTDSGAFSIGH
Test: Calcium luminescence measurement: human P2X3 receptor activity inhibition (CHO-K1 cells, photoprotein readout, FLEXSTATION)
Conditions: CHO-K1 cells co-expressing human P2X3 and Ca2+ sensitive photoprotein; agonist α,β-Met-ATP; read-out: h-P2X3 IC50
Give bare numbers, in nM.

- CC(C)(C)c1nnc2c3ncc(N4CCOCC4)cc3n(Cc3ccc(Br)cc3)c(=O)n12 [Example 31]: 7.2
- CC(C)C1C(=O)N=C2c3ncc(N4CCOCC4)cc3N(Cc3ccc(Cl)cc3)C(=O)N21 (racemic) [Example 22]: 36.8
- CC(C)(O)C1CN2C(=O)N(Cc3ccc(Cl)cc3)c3cc(N4CCOCC4)nnc3C2=N1 (centres unmarked) [Example 19]: 31.2
- CC(C)(C)Cc1nc2c3nnc(N4CCOCC4)cc3n(Cc3ccc(Cl)cc3)c(=O)n2n1 [Example 54]: 24.9
- COc1cc(Cn2c(=O)n3c(C(C)(C)C)nnc3c3ncc(N4CCOCC4)cc32)ccc1F [Example 42]: 1170

List reported IC50 for each of these molecules:
1. CC(C)(C)c1nnc2c3ncc(N4CC[C@@H](O)C4)cc3n(Cc3ccc(Cl)cc3)c(=O)n12 [Example 43]
2. CC1(C)CN2C(=O)N(Cc3ccc(Cl)cc3)c3cc(N4CCOCC4)cnc3C2=N1 [Example 2]
3. COc1ccc(Cn2c(=O)n3c(C(C)(C)OC)nnc3c3ncc(N4CCOCC4)cc32)cc1 [Example 33]

67.6
1010
301
